# TARGET_UNDER_TEST: T1, sN-TALER IV-1 (GinH106Y-TALE13) (synthetic)
# T1 chain: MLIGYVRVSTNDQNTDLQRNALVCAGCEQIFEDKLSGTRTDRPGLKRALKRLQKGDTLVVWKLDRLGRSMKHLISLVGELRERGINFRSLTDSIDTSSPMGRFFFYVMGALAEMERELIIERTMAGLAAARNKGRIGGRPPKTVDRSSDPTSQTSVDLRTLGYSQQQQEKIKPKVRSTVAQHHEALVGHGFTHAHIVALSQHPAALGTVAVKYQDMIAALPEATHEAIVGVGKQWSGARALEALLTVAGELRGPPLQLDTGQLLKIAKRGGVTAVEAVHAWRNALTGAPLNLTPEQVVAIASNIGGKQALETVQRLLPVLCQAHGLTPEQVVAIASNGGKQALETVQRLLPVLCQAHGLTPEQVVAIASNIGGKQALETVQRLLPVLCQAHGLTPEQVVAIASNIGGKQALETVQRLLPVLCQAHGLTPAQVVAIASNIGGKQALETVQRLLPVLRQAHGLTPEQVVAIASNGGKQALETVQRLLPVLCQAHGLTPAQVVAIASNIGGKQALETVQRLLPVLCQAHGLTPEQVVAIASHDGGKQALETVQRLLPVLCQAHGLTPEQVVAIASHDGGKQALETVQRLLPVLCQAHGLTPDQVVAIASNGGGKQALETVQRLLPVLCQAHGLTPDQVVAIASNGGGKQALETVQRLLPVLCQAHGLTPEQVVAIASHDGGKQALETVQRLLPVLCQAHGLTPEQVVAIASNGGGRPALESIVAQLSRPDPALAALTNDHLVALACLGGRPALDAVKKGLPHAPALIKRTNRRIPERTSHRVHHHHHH
# ASSAY_SUMMARY: cell_activity; E. coli
# PARTICULARS: tags: 6-His; chain copies: 2 per site, tetramer in synapsis (stated)
PROPERTY_LABEL: activity (score)
Your answer should be a plain number; it is taken to be in score.

• Gin20TALE+2 (dsDNA) DNA 1: AGAAGGTATTTATATATCCAAAACCATGGTTTACAGTATATAAATACCTTCT DNA 2: AGAAGGTATTTATATACTGTAAACCATGGTTTTGGATATATAAATACCTTCT = 3

Pending binder:
Query :: Give the reported value of activity for this record: Gin20TALE+9 (dsDNA) DNA 1: AGAAGGTATTTATATAGGCATTATCCAAAACCATGGTTTACAGGACACGGTATATAAATACCTTCT DNA 2: AGAAGGTATTTATATACCGTGTCCTGTAAACCATGGTTTTGGATAATGCCTATATAAATACCTTCT
Result :: 2
